Quick reference: z-score of the listed items.
# procedure-summary: splicing luciferase reporter signal modulators, primary screen, spliceosome inhibition project, cell-based, HEK293, splice +/- reporter (AID 1101);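 note: HEK293 cells carrying a splicing-competent luciferase reporter gene; test concentration not given here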
# test-settings: luminescence, 24 h, higher = more signal, called active from +8 up or from −8 down
readout-type: z-score

1) O=C1c2ccccc2[C@@]2(Cc3ccccc3N(C3CC3)C2=O)[C@H](c2ccc(CO)cc2)N1C1CCCCC1 | -0.402
2) [N-]=[N+]=Nc1ccccc1[C@H]1OC(c2ccc(OCCCO)cc2)=N[C@@]1(CCS(=O)(=O)c1ccccc1)C(=O)N1CCCCC1 | -1.21
3) CC(C)NC(=O)[C@@]1(C)c2ccccc2C(=O)N(C(C)C)[C@H]1c1ccc(CO)cc1 | 0.0862
4) CC(CO)N1C(=O)[C@@H]2C3C(=O)OCCC/C=C\[C@H]3OC23C=CCN(Cn2nnc4ccccc42)C(=O)[C@@H]13 (some centres undefined) | -0.411

###

Quick reference: z-score of the listed items.
# procedure-summary: CREB reporter modulators without forskolin, primary screen, cell-based, PC12, CRE-LacZ reporter, unstimulated (AID 1145)
# test-settings: no forskolin, luminescence, 4.5 h, higher = more signal, called active from +8 up or from −8 down
readout-type: z-score

1. C=CCNC(=O)[C@H]1[C@@H]2C(=O)O[C@@H](c3ccccc3)[C@@H](c3ccccc3)N2[C@@H](c2ccccc2OCCO)[C@]12C(=O)N(C(=O)OCCOC)c1ccc(C#CC3=CCCCC3)cc12 | -0.333
2. CCOC(=O)C[C@H]1[C@H](OC(=O)Cc2ccc3c(c2)OCO3)[C@@H](NC(=O)C2CCCCC2)c2cc(OCCCO)ccc2N1C(=O)c1ccc2ccccc2n1 | 6.45
3. Cc1ccc(S[C@]2(C(=O)NCC(C)C)CC(=O)N(Cc3ccccc3Cl)[C@@H]2c2ccc(CO)cc2I)cc1 | -0.904
4. COc1ccc(C#Cc2ccc3c(c2)[C@]2(C(=O)N3)[C@H](C(=O)N3CCc4cc(OC)c(OC)cc4C3)[C@H]3C(=O)O[C@H](c4ccccc4)[C@H](c4ccccc4)N3[C@@H]2c2ccc(O)cc2)cc1 | -0.141
5. COC(=O)[C@]1(CCS(=O)(=O)c2ccccc2)N=C(c2ccc(OCCCO)cc2)O[C@@H]1c1ccccc1CN=[N+]=[N-] | 1.73
6. COC(=O)C1(Cc2ccccc2)C=C2C(=C(c3ccccc3)C(=O)C2C)CN1 (stereo unspecified) | 1.15

###

# procedure-summary: binders of probe aFST on microarray, primary screen, stem cell growth factor project, biochemical, small-molecule microarray, fluorescence 635/667 (AID 1086);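 note: score merges 667 nm fluorescence with signal-to-noise of each printed compound spot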
# test-settings: higher = more signal
readout-type: composite z-score

1) COc1ccc(C(O)C2C=CC3C(=O)N(c4ccccc4)C(=O)C3N2Nc2ccc(C#N)cc2)c2ccccc12 (configuration not stated) | 1.2
2) COc1cc(CO)cc(I)c1O[C@H]1C=C(C(=O)NCCO)C[C@@H](N(Cc2ccc(F)cc2)C(=O)C2CCCO2)[C@@H]1O (some centres not stated) | 0.0494
3) O=C1c2ccccc2[C@](Cc2ccccc2I)(C(=O)NCCN2CCOCC2)[C@H](c2ccc(CO)cc2)N1Cc1ccccc1 | 0.983
4) CCOc1cc(C(O)C2C=CC3C(=O)N(C4CCCCC4)C(=O)C3N2Nc2ccc(OC)cc2)ccc1O (configuration not stated) | 0.775
5) NC(=O)NCC#Cc1ccc2c(c1)[C@]1(C(=O)N2)[C@H](C(=O)Nc2nc3ccccc3s2)[C@H]2C(=O)O[C@H](c3ccccc3)[C@H](c3ccccc3)N2[C@@H]1c1ccc(O)cc1 | 0.623
6) CC=CC(O)C1C=CC2C(=O)N(c3ccccc3)C(=O)C2N1Nc1ccccc1 (configuration not stated) | 1.14
7) CCOC(=O)C[C@H]1[C@H](OC(=O)c2ccc(-c3ccccc3)cc2)[C@@H](NC(=O)C2CCCCC2)c2cc(OCCCO)ccc2N1C(=O)c1ccccc1 | 0.345
